For reference, the following pIC50 results for ACK1 (Homo sapiens, UniProt Q07912) were taken from various sources.
pIC50: −log10 of the molar value.

Look over these answered cases.
1) COc1cc(N2CCN(C)CC2)c(F)cc1Nc1ncc2ccn(CC3CCOCC3)c2n1 :: > 6.60
2) Fc1cnc(Nc2ccc(OCCN3CCCC3)cc2)nc1NCc1ccco1 :: 7.00
3) CCc1nc(-c2cc(NC(=O)c3cccc(C(F)(F)F)c3)ccc2C)cc2cnc(Nc3ccc(C)nc3)nc12 :: 6.00 to 7.00
4) CC(C)Oc1cc(Nc2ncc3ccn(-c4cccc(NS(=O)(=O)C(C)C)c4)c3n2)ccc1N1CCN(C)CC1 :: > 6.60
5) Cc1cc(C)c(C(=O)Nc2n[nH]c3c2CCn2cc(C(=O)N4CCCC4)cc2-3)c(C)c1 :: 6.12

For each of the compounds below, note its pIC50.
1. CCCN1CCN(C(=O)c2cc3n(c2)CCc2c(NC(=O)c4ccc(C)cc4C)n[nH]c2-3)CC1
2. COc1cc(N2CCN(C)CC2)c(F)cc1Nc1ncc2ccn(-c3ccc(N4CCCS4(=O)=O)cc3)c2n1

Completion:
5.92
> 6.60

Prompt: For the compound `CN1CCN(c2ccc(Nc3ncc4ccn(CC5CCOCC5)c4n3)c(OC3CCC3)c2)CC1` , what pIC50 is on record?
Completion: > 6.60

----------
This section presents IC50 values reported for ACK1 (Homo sapiens) in the literature.

Report IC50 for each item below.
1. Cc1ccc(NC(=O)c2cccc(C(F)(F)F)c2)cc1-c1cc2cnc(NC3CC3)nc2cn1
2. O=C(NCC1CC1)c1cc2n(c1)CCc1c(NC(=O)c3ccccc3Cl)n[nH]c1-2
3. CC(C)Oc1cc(Nc2ncc3ccn(C[C@H]4CCCO4)c3n2)ccc1N1CCN(C)CC1

Completion:
1. 100 to 1000 nM
2. 960 nM
3. < 250 nM

Fill in IC50 for each of the 2 molecules listed.
1. COc1cc(N2CCN(C)CC2)ccc1Nc1ncc2c(F)cn(CC3CCCO3)c2n1 (centres unmarked)
2. COc1cc(N2CCN(C)CC2)c(F)cc1Nc1ncc2ccn(C[C@H]3CCCO3)c2n1

Completion:
< 250 nM
< 250 nM

----------
pIC50: −log10 of the molar value.
Literature roundup of ACK1 (Homo sapiens, UniProt Q07912) data, read-out pIC50.

1. O=C(NC1CCCC1)c1cc2n(c1)CCc1c(NC(=O)c3ccccc3Cl)n[nH]c1-2 :: 5.36
2. CC(C)Oc1cc(Nc2ncc3ccn(CCc4ccccc4)c3n2)ccc1-c1cnn(C)c1 :: > 6.12
3. COc1cc(N2CCN(C)CC2)c(F)cc1Nc1ncc2ccn(CC3CCCO3)c2n1 (centres unmarked) :: > 6.60
4. Cc1ccc(NC(=O)c2cccc(C(F)(F)F)c2)cc1N1Cc2cnc(NC3CC3)nc2N(C)C1=O :: 7.35 to 7.52

Would you mind listing pIC50 for each of the following molecules?
1. COc1c(Nc2ncc3ccn(-c4ccc(NS(=O)(=O)C(C)C)cc4)c3n2)cc(F)c(N2CCN(C)CC2)c1F
2. CN1CCN(c2cc(Cl)c(Nc3ncc4ccn(-c5cccc(N6CCCCS6(=O)=O)c5)c4n3)cc2F)CC1
3. COc1cc(N2CCN(C)CC2)c(F)cc1Nc1ncc2ccn(CCc3ccccc3Cl)c2n1
4. COc1ccccc1-c1cnc(-c2ccc(C)c(N3Cc4cnc(Nc5cnn(C)c5)nc4N(C)C3=O)c2)[nH]1

Completion:
1. > 6.60
2. > 6.60
3. > 6.60
4. > 7.00
